Test target: RSV F protein of subtype A strain A2, on virus (respiratory syncytial virus subtype A …, UniProt P03420 26-574)
Assay summary: cell-based or functional assay
Overview of recorded Neut IC50 (ug/ml) subtype A for various binders

Binder	Neut IC50 (ug/ml) subtype A
ADI-15662 (antibody, V domains shown, IgG) VH: QVQLQESGPGLVKPSETLSLTCTVSGGSVSRGSYYWTWIRQPPGKGLEWIGYIYYSGSTNYNPSLKSRVTISVDTSKNQFSLKLSSVTAADTAVYYCARDIGEDKYGTYYGMDVWGQGTTVTVSS VL: EIVMTQSPATLSLSPGERATLSCRASQSVSSSLAWYQQKPGQAPRLLIYGASNRATGIPARFSGSGSGTDFTLTISSLEPEDFAVYYCQQRTNWPPVTFGPGTKVEIK	6.25 µg/mL
ADI-15576 (antibody, V domains shown, IgG; also called Antibody Number 146) VH: QVQLVQSGAAVKKPGESLKISCKGFGYSFTKYWIGWVRQVPGKGLEWIGIISPTDSNTRYSPSFRGQVTMSADKSISAAYLQWSSLKASDTAMYYCARHSSPYSSGWYGDTYFFDSWGQGTLVTVSS VL: QPVLTQPPSASGTPGQRVTISCSGSNSNIGTNTVNWYQQLPGTAPKVLIHNNNERPSGVPDRFSGSKSGTSASLAISGLQSEDEADYYCAAWDDSLRGYVFGTGTKVTVL	6.08 µg/mL
ADI-15646 (antibody, V domains shown, IgG; also called Antibody Number 210) VH: EVQLLESGGGLIQPGGSLRLSCGASGFTVTGNYMHWVRQAPGKGLEWVSVIYAGSSTYYADSVRGRFTISRDKARNTLFLQMNRLRAEDTAVYYCARAGVVGEDRSGWYGPDYFHGLDVWGQGTTVTVSS VL: ETTLTQSPGTLSLSPGERATLSCRASQSIRNNYLAWYQQKPGQPPRLLIYGESRRATGIPGRFSGSGSGTDFTLTISSLEPEDFAVYYCQQYGGSPYTFGQGTKVDIK	0.846 µg/mL
ADI-15586 (antibody, V domains shown, IgG; also called Antibody Number 153) VH: EVQLVESGGGVVQPGKSLRLSCAASGFIFSGYGMHWVRQAPGKGLEWVAFIWFDGSSTYYADSVKGRFTISKDDSKQTVYLQMNRLRAEDTAVYYCARDPLFLYNYNDEPFDYWGQGTLVTVSS VL: SYELTQPPSASGSPGQSVTISCSGSSSNIGGNFVYWYQQLPGTAPKVLIYRNNQRPSGVPDRFSGSKSGTSASLAISGLRSDDEADYYCSVWDDSLNGRLFGGGTKLTVL	> 10 µg/mL
ADI-15626 (antibody, V domains shown, IgG) VH: EVQLVESGAEVKKPGSSVKVSCKASGGTFSSYEISWVRQAPGQGLEWMGGINPMFGAANYAQKFQDRVTIIADKSTGTVYMELSSLRSEDTALYYCARERYPSTDDYYRSGRYYGEWGQGTTVTVSS VL: ETTLTQSPSTLSASVGDRVTITCRASQSIRSWLAWYQQKPGKAPKLLIYRASTSDSGVPSRFSGSGSGTEFTLTISSLQPDDFAIYYCQQYNSIPVTFGQGTKLEIK	14.2 µg/mL
